- test.protocol: in vivo
- particulars: male, Gottingen, minipig, stratum corneum (tape strips), topical, 1 μg/mL

{"molecule": "C=C1/C(=C\\C=C2/CCC[C@]3(C)[C@@H]([C@H](C)CCCC(C)(C)O)CC[C@@H]23)C[C@@H](O)C[C@@H]1O [Calcitriol, 1,25-dihydroxyvitamin D3]", "concentration at 7 days": "1540 ng/g"}

====

- test.protocol: in vivo
- particulars: female, Gottingen, minipig, stratum corneum (tape strips), topical, 3 μg/mL
measurement.label: concentration at 7 days (ng/g)

{"molecule": "C=C1/C(=C\\C=C2/CCC[C@]3(C)[C@@H]([C@H](C)CCCC(C)(C)O)CC[C@@H]23)C[C@@H](O)C[C@@H]1O [Calcitriol, 1,25-dihydroxyvitamin D3]", "measurement.label": "concentration at 7 days", "endpoint.result": 40}
